Molecular target: Parkinson's disease protein 7 (PARK7/DJ1) (human, UniProt Q99497)
Sequence (Q99497 whole entry, looked up): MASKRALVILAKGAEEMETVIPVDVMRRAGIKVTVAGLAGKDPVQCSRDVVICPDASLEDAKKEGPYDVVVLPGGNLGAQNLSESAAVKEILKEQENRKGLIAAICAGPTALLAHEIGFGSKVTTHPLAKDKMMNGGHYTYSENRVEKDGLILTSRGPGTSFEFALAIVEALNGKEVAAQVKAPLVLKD
Test: primary screen, percent inhibition; read as competition with a fluorescent probe by fluorescence polarization; higher = more effect of the substance
Conditions: 100 µM
In all, about 7,900 compounds went through this assay and about 400 (5.1%) showed an effect of 50% or more. This is one part of a sample in which strong results are shown more often than they occur.
Classification field: enter met for Inhibition % values not below 10%, not met for values below it.

As a guide, the following entries are already answered.
[
  {
    "Compound": "Sc1nncc(-c2cccs2)n1",
    "Qualitative Label": "met"
  },
  {
    "Compound": "O=C(CCl)Nc1ccccc1S(=O)(=O)C(F)F",
    "Qualitative Label": "not met"
  },
  {
    "Compound": "O=C(CCl)Nc1nc(-c2cccs2)cs1",
    "Qualitative Label": "met"
  },
  {
    "Compound": "Sc1ccc2ccccc2n1",
    "Qualitative Label": "met"
  },
  {
    "Compound": "C=CC(=O)NC1CC2(COC(C)C2)C1 (stereo not drawn)",
    "Qualitative Label": "not met"
  }
]

Ask: Given the entry O=C1OC[C@@H]2CN(Cc3ccccc3)C[C@H]12 (racemic) , answer whether its Inhibition % meets or surpasses 10%.
Result: not met

Ask: Given the entry Cc1ccc(NC(=O)NC(=O)CCl)cc1 , answer whether its Inhibition % meets or surpasses 10%.
Result: not met
